study_system: T1, human ADAMTS5 (human, UniProt Q9UNA0 262-622, limits assumed)
T1 construct: Octet and ELISA used 'recombinant human ADAMTS5'; also called recombinant human ADAMTS5; ADAMTS5 (R&D Systems 2198-AD)
T1 sequence: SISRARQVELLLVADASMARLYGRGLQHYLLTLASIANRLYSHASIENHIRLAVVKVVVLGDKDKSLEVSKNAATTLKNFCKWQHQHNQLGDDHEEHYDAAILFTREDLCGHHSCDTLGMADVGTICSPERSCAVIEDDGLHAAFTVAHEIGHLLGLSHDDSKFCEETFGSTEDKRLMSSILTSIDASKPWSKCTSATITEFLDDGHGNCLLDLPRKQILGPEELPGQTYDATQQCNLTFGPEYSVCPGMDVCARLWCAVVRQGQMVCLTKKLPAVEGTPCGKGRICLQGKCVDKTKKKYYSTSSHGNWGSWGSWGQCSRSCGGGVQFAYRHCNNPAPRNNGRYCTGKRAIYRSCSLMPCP
assay_details: Octet QK, purified mAb
metric_name: Kd (nM)
Numbers only, in nM.

Below, 3 binders whose answers are already recorded.
{"binder": "BPC1623 (antibody, human IgG1, kappa, V domains shown, Chimeric: murine variable domains on human gamma 1 and kappa constant regions; also called 12F4 Chimera; Chimeric 12F4.1H7) VH: EVKLEESGGGLVQPGGSMKLSCTASGFTFSDAWMDWVRQSPEKGLEWVAEIRHKANDHAIFYDESVKGRFTISRDDSKNIVYLQMNSLRPEDTGIYYCTSPFAYWGQGTLVTVSS VL: DIVMTQSQKFMSVTVGDRVSITCKASQSVGTTIVWYQQKPGQSPKLLIYSASNRHTGVPDRFTGSGSGTDFILTINNVQSEDLADYFCQQYTSYPFTFGSGTKLEIKR", "result_number": 0.0799}
{"binder": "7B4.1E11 (antibody, IgG1, V domains shown, also called Murine 7B4.1E11) VH: EVKLEESGGGLVQPGGSMKLSCAASGFTSSDAWMDWVRQSPEKGLEWVAEIRNKANNHARHYAESVKGRFTISRDDSKSSVYLQMNSLRAEDSGIYYCTRTYYYGSSYGYCDVWGTGTTVTVSS VL: DIQMTQSPASLSASVGETVTITCRTSENIYSYLAWYQQKQGKSPQLLVYNAKTLAEGVPSRFSGSGSGTQFSLKINSLQPEDFGSYSCQHHYGTPWTFGGGTKLEIKR", "result_number": 0.358}
{"binder": "12F4.1H7 (antibody, IgG2, V domains shown, also called Murine 12F4.1H7) VH: EVKLEESGGGLVQPGGSMKLSCTASGFTFSDAWMDWVRQSPEKGLEWVAEIRHKANDHAIFYDESVKGRFTISRDDSKNIVYLQMNSLRPEDTGIYYCTSPFAYWGQGTLVTVSA VL: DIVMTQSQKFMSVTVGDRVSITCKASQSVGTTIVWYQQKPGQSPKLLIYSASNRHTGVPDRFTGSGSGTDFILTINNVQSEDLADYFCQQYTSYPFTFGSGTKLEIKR", "result_number": 0.0685}

Which Kd value is on record for BPC1622 (antibody, human IgG1, kappa, V domains shown, Chimeric: murine variable domains on human gamma 1 and kappa constant regions; also called 7B4 Chimera; Chimeric 7B4.1E11) VH: EVKLEESGGGLVQPGGSMKLSCAASGFTSSDAWMDWVRQSPEKGLEWVAEIRNKANNHARHYAESVKGRFTISRDDSKSSVYLQMNSLRAEDSGIYYCTRTYYYGSSYGYCDVWGTGTLVTVSS VL: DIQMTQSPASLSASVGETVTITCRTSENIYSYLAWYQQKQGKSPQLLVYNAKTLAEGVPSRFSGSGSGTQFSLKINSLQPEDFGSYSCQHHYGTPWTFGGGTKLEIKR ?
0.345
